target_of_assay: CaLsb1
test_name: SPOT peptide array binding signal intensity (averaged, normalized) (arbitrary units (background-subtracted, floor 0; scale differs between SH3 domains)); higher = stronger binding of the SH3 domain to the peptide
Recorded SPOT peptide array binding signal intensity, one value per entry.
Output spec: single numeric token, no unit.

The following binders have reported results that may help.
binder | reported
RNNRPVPPPPPMRTT | 2
TIRRRAPLSLLESHT | 0.5

Prompt: Supply recorded SPOT peptide array binding signal intensity for "VLRFLGFPLPIFEKG" here.
Completion: 1

Prompt: State its SPOT peptide array binding signal intensity: "RVRKTHVPASKRPSG"
Completion: 0.5

Prompt: Please report SPOT peptide array binding signal intensity for the following binder: "AGKRRLPLVRFKASD"
Completion: 2
